Below, each entry is listed alongside its reported phospho-S6 immunofluorescence (z-score).
Tested on: MDA-MB-468
protocol: phospho-S6 immunofluorescence (DAPI-normalised), per-plate z-score; higher = higher phospho-S6 signal (less pathway suppression)
condition.label: co-treatment: lapatinib 1 uM; 24 h
Where a name gives a salt, the structure may show the parent alone.
Give the value as a plain number.

C[C@]12CCC(=O)C=C1CC[C@@H]1[C@@H]2C(=O)C[C@@]2(C)[C@H]1CC[C@]2(O)C(=O)CO [Cortisone] (compound 10 µM) ... 0.58
Cc1cc(C(C)(C)C)c(O)c(C)c1CC1=NCCN1 [Oxymetazoline (hydrochloride)] (compound 10 µM) ... -0.17

Now look at this one.
### Prompt What phospho-S6 immunofluorescence (z-score) value was documented for this compound, O=C(C[S+]([O-])Cc1ccco1)NC/C=C\COc1cc(CN2CCCCC2)ccn1 (stereo not drawn) [Lafutidine] (compound 10 µM) ?
### Response 0.02
